# target: Mitogen-activated protein kinase 14 (Homo sapiens)
# Sequence (Q16539 whole entry): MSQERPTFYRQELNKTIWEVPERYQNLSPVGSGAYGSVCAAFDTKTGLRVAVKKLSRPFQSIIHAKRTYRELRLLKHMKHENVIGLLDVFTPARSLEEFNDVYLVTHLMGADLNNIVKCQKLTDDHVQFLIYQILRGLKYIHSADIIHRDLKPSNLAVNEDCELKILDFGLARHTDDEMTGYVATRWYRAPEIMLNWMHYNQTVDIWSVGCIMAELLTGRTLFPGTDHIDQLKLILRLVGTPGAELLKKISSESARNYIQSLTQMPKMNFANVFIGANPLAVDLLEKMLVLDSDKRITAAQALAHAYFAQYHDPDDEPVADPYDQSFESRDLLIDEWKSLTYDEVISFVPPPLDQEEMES
# test: Inhibition of p38alpha MAPK (unknown origin) assessed as decrease in ATF2 phosphorylation at Thr69/71 at 1 uM after 1 hr by ELISA
pIC50: −log10 of the molar value.
Tick Y if pIC50 is 8 or greater. Tick N if pIC50 is less than 8.

1. OCCc1nc(-c2ccc(F)cc2)c(-c2ccnc3[nH]c(-c4ccccc4)cc23)[nH]1    Y
2. OCCCc1nc(-c2ccc(F)cc2)c(-c2ccnc3[nH]c(-c4ccccc4)cc23)[nH]1    Y
3. OCCCCc1nc(-c2ccc(F)cc2)c(-c2ccnc3[nH]c(-c4ccccc4)cc23)[nH]1    Y
4. C=CC(=O)Nc1cccc(-c2c[nH]c3nccc(-c4[nH]c(CCCO)nc4-c4ccc(F)cc4)c23)c1    N
5. Oc1ccc(-c2nc(-c3ccco3)c(-c3ccnc4[nH]c(-c5ccccc5)cc34)[nH]2)cc1    N
6. Oc1ccc(-c2nc(-c3ccccc3)c(-c3ccnc4[nH]c(-c5ccccc5)cc34)[nH]2)cc1    Y

----------
# target: Epidermal growth factor receptor (Homo sapiens, UniProt P00533, L858R)
# test: Binding affinity to human EGFR L858R mutant (669 to 1011 residues) expressed in bacterial system incubated for 1 hr
pKd: −log10 of the molar value.
measuredEndpoint: pKd

1. C=CC(=O)Nc1cccc(-c2c[nH]c3nccc(-c4[nH]c(CCCO)nc4-c4ccc(F)cc4)c23)c1    9.03

----------
# target: Epidermal growth factor receptor (Homo sapiens, UniProt P00533, L858R)
# test: Inhibition of recombinant human GST-tagged EGFR L858R mutant cytoplasmic domain expressed in baculovirus expression system preincubated for 20 mins followed by addition of [33P]-ATP measured after 2 hrs by filter-binding method
# conditionsUsed: read-out: IC50
pIC50: −log10 of the molar value.
measuredEndpoint: pIC50

1) C=CC(=O)Nc1cccc(-c2cc3c(-c4[nH]c(-c5ccccc5)nc4-c4ccc(F)cc4)ccnc3[nH]2)c1    7.49
2) C=CC(=O)NCc1cccc(-c2cc3c(-c4[nH]c(-c5ccccc5)nc4-c4ccc(F)cc4)ccnc3[nH]2)c1    7.47
3) CCC(=O)Nc1cccc(-c2c[nH]c3nccc(-c4[nH]c(CCCO)nc4-c4ccc(F)cc4)c23)c1    6.55

----------
# target: Epidermal growth factor receptor (Homo sapiens, UniProt P00533, L858R)
# test: Inhibition of recombinant human GST-tagged EGFR L858R mutant cytoplasmic domain expressed in baculovirus expression system preincubated for 20 mins followed by addition of [33P]-ATP measured after 2 hrs by filter-binding method
# conditionsUsed: read-out: IC50
measuredEndpoint: log10 of IC50 (log10 of the value in nM)

1. C=CC(=O)Nc1cccc(-c2c[nH]c3nccc(Cl)c23)c1    2.66
2. C=CC(=O)NCc1cccc(-c2nc(-c3ccc(F)cc3)c(-c3ccnc4[nH]c(-c5ccccc5)cc34)[nH]2)c1    1.11
3. Oc1ccc(-c2nc(-c3ccnc4[nH]c(-c5ccccc5)cc34)c(-c3ccc(F)cc3)[nH]2)cc1    1.38
4. Fc1ccc(-c2[nH]c(-c3ccccc3)nc2-c2ccnc3[nH]c(-c4ccccc4)cc23)cc1    2.01
5. CCC(=O)Nc1cccc(-c2cc3c(-c4[nH]c(-c5ccccc5)nc4-c4ccc(F)cc4)ccnc3[nH]2)c1    1.27
6. C=CC(=O)Nc1cccc(-c2c[nH]c3nccc(-c4[nH]c(-c5ccccc5)nc4-c4ccc(F)cc4)c23)c1    0.89
7. C=CC(=O)NCc1cccc(-c2nc(C3CC3)c(-c3ccnc4[nH]c(-c5ccccc5)cc34)[nH]2)c1    3.59
8. Oc1cccc(-c2nc(-c3ccc(F)cc3)c(-c3ccnc4[nH]c(-c5ccccc5)cc34)[nH]2)c1    1.37
9. C=CC(=O)Nc1cccc(-c2c[nH]c3nccc(-c4[nH]c(CCCO)nc4C4CC4)c23)c1    2.41
10. Fc1ccc(-c2nc(-c3ccccc3)[nH]c2-c2ccnc3[nH]ccc23)cc1    2.80
11. Nc1cccc(-c2cc3c(-c4[nH]c(-c5ccccc5)nc4-c4ccc(F)cc4)ccnc3[nH]2)c1    1.19
12. OCCCc1nc(-c2ccc(F)cc2)c(-c2ccnc3[nH]ccc23)[nH]1    1.39
13. Oc1ccc(-c2nc(-c3ccccc3)c(-c3ccnc4[nH]c(-c5ccccc5)cc34)[nH]2)cc1    1.05
14. Oc1ccc(-c2nc(-c3ccco3)c(-c3ccnc4[nH]c(-c5ccccc5)cc34)[nH]2)cc1    3.11
15. C=CC(=O)Nc1cccc(-c2c[nH]c3nccc(-c4[nH]c(CCCO)nc4C(F)(F)F)c23)c1    2.47

----------
# target: EGFR (wild-type) (Homo sapiens, UniProt P00533)
# test: Inhibition of recombinant wild-type human N-terminally GST-His6 tagged EGFR (H672 to A1210 residues) C-terminal fragment harboring 3C cleavage site expressed in Baculovirus infected Sf9 cells assessed as residual activity at 1 uM in presence of [33-gamma]-ATP after 60 mins by scintillation counting method relative to control
# conditionsUsed: read-out: Activity
measuredEndpoint: activity at 1 h, 1 µM (%)

1. C=CC(=O)Nc1cccc(-c2c[nH]c3nccc(-c4[nH]c(CCCO)nc4-c4ccc(F)cc4)c23)c1    5

----------
# target: Epidermal growth factor receptor (Homo sapiens, UniProt P00533, T790M/C797S/L858R)
# test: Inhibition of recombinant human N-terminally GST-tagged EGFR L858R/T790M/C797S triple mutant expressed in baculovirus in Sf9 insect cells preincubated for 20 mins followed by addition of [33P]-ATP measured after 2 hrs by filter-binding method
measuredEndpoint: IC50

1. C=CC(=O)Nc1cccc(-c2c[nH]c3nccc(-c4[nH]c(CCCO)nc4C(F)(F)F)c23)c1    Not Active
2. C=CC(=O)Nc1cccc(-c2c[nH]c3nccc(-c4[nH]c(CCCO)nc4-c4ccc(F)cc4)c23)c1    Not Active
3. CCC(=O)Nc1cccc(-c2c[nH]c3nccc(-c4[nH]c(-c5ccccc5)nc4-c4ccc(F)cc4)c23)c1    Not Active
4. C=CC(=O)NCc1cccc(-c2cc3cccnc3[nH]2)c1    Not Active
5. CCC(=O)Nc1cccc(-c2c[nH]c3nccc(-c4[nH]c(CCCO)nc4C4CC4)c23)c1    Not Active

----------
# target: Epidermal growth factor receptor (Homo sapiens, UniProt P00533, L858R)
# test: Binding affinity to human EGFR L858R mutant (669 to 1011 residues) expressed in bacterial system preincubated for 1 hr followed by 30 fold dilution measured after 5 hrs
pKd: −log10 of the molar value.
measuredEndpoint: pKd

1. C=CC(=O)Nc1cccc(-c2c[nH]c3nccc(-c4[nH]c(CCCO)nc4-c4ccc(F)cc4)c23)c1    8.74

----------
# target: Epidermal growth factor receptor (Homo sapiens, UniProt P00533, L858R/T790M)
# test: Binding affinity to human EGFR L858R/T790M double mutant (669 to 1011 residues) expressed in mammalian system incubated for 1 hr
pKd: −log10 of the molar value.
measuredEndpoint: pKd

1) C=CC(=O)Nc1cccc(-c2c[nH]c3nccc(-c4[nH]c(CCCO)nc4-c4ccc(F)cc4)c23)c1    7.89

----------
log10(IC50): recorded values
# target: Epidermal growth factor receptor (Homo sapiens, UniProt P00533, L858R/T790M)
# test: Inhibition of recombinant human GST-tagged EGFR L858R/T790M double mutant cytoplasmic domain expressed in baculovirus expression system preincubated for 20 mins followed by addition of [33P]-ATP measured after 2 hrs by filter-binding method
measuredEndpoint: log10(IC50) (log10 of the value in nM)

1. CCC(=O)Nc1cccc(-c2cc3c(-c4[nH]c(-c5ccccc5)nc4-c4ccc(F)cc4)ccnc3[nH]2)c1    2.99
2. C=CC(=O)Nc1cccc(-c2c[nH]c3nccc(-c4[nH]c(CCCO)nc4C(F)(F)F)c23)c1    3.27
3. Oc1ccc(-c2nc(-c3ccccc3)c(-c3ccnc4[nH]c(-c5ccccc5)cc34)[nH]2)cc1    2.82
4. Oc1ccc(-c2nc(-c3ccnc4[nH]c(-c5ccccc5)cc34)c(-c3ccc(F)cc3)[nH]2)cc1    2.96
5. C=CC(=O)NCc1cccc(-c2nc(C3CC3)c(-c3ccnc4[nH]c(-c5ccccc5)cc34)[nH]2)c1    4.05
6. C=CC(=O)Nc1cccc(-c2c[nH]c3nccc(Cl)c23)c1    1.83
7. C=CC(=O)Nc1cccc(-c2c[nH]c3nccc(-c4[nH]c(CCCO)nc4-c4ccc(F)cc4)c23)c1    0.18
8. CCC(=O)Nc1cccc(-c2c[nH]c3nccc(-c4[nH]c(CCCO)nc4-c4ccc(F)cc4)c23)c1    3.77
9. C=CC(=O)Nc1cccc(-c2c[nH]c3nccc(-c4[nH]c(-c5ccccc5)nc4-c4ccc(F)cc4)c23)c1    2.05
10. C=CC(=O)NCc1cccc(-c2nc(-c3ccc(F)cc3)c(-c3ccnc4[nH]c(-c5ccccc5)cc34)[nH]2)c1    2.42
11. OCCCc1nc(-c2ccc(F)cc2)c(-c2ccnc3[nH]ccc23)[nH]1    2.95
12. OCCCCc1nc(-c2ccc(F)cc2)c(-c2ccnc3[nH]c(-c4ccccc4)cc23)[nH]1    0.92
13. Oc1cccc(-c2nc(-c3ccc(F)cc3)c(-c3ccnc4[nH]c(-c5ccccc5)cc34)[nH]2)c1    2.85
14. C=CC(=O)NCc1cccc(-c2cc3c(-c4[nH]c(-c5ccccc5)nc4-c4ccc(F)cc4)ccnc3[nH]2)c1    2.83
15. Fc1ccc(-c2[nH]c(-c3ccccc3)nc2-c2ccnc3[nH]c(-c4ccccc4)cc23)cc1    3.16
16. Nc1cccc(-c2cc3c(-c4[nH]c(-c5ccccc5)nc4-c4ccc(F)cc4)ccnc3[nH]2)c1    2.81
17. C=CC(=O)Nc1cccc(-c2cc3c(-c4[nH]c(-c5ccccc5)nc4-c4ccc(F)cc4)ccnc3[nH]2)c1    2.96
18. Oc1ccc(-c2nc(-c3ccco3)c(-c3ccnc4[nH]c(-c5ccccc5)cc34)[nH]2)cc1    3.52
19. OCCc1nc(-c2ccc(F)cc2)c(-c2ccnc3[nH]c(-c4ccccc4)cc23)[nH]1    1.10

The reported numbers originate from ChEMBL document CHEMBL4049460.
